Recorded values, source ChEMBL document CHEMBL2331403.

Test system: Plasma
Assay: Fraction unbound in human plasma by LC-MS/MS analysis
Type: ADME, cell-free
# label = class 1 if Cp(f) >= 2% else class 0

Identify whether the reported Cp(f) of the following compound is 2% or greater: "COCCC(=O)N[C@@H](C)c1ccc(Nc2ncc3cc(-c4ccncc4)ccc3n2)cc1"
class 0

Next compound: "C[C@@H](NC(=O)[C@H]1CCCCN1)c1ccc(Nc2ncc3cc(-c4ccncc4)ccc3n2)cc1"
class 1

How about "C[C@@H](NC1=CC(=O)CCC1)c1ccc(Nc2ncc3cc(-c4ccncc4)ccc3n2)cc1" ?
class 0

Would you kindly repeat that for "CC(=O)N[C@H](C)c1ccc(Nc2ncc3cc(-c4ccncc4)c(C)cc3n2)cc1" ?
class 0

Next entry: "CC(=O)N[C@H](C)c1ccc(Nc2ncc3cc(-c4ccncc4)cc(Cl)c3n2)cc1"
class 0

Similarly, "COCCN(C)c1ccc(Nc2ncc3cc(-c4ccncc4)ccc3n2)cc1" ?
class 0

Same question for "CC(=O)N[C@H](C)c1ccc(Nc2ncc3cc(-c4ccncc4)c(Cl)cc3n2)cc1" please.
class 0

Param item: C[C@@H](NC(=O)C1CCCCN1C)c1ccc(Nc2ncc3cc(-c4ccncc4)ccc3n2)cc1 (mixture of isomers)
class 1

Then this compound: "C[C@@H](NC(=O)[C@H]1CCCNC1)c1ccc(Nc2ncc3cc(-c4ccncc4)ccc3n2)cc1"
class 0
